Test system: NCI-H1793
Assay: relative viability (nuclei count vs DMSO), 5 days (fraction); higher = more cells survive
Conditions: first compound 0.006325 µM
valueKind: relative viability

[
  {
    "compound": "CC(=O)O[C@@]12CO[C@@H]1C[C@H](O)[C@@]1(C)C(=O)[C@H](O)C3=C(C)[C@@H](OC(=O)[C@H](O)[C@@H](NC(=O)OC(C)(C)C)c4ccccc4)C[C@@](O)([C@@H](OC(=O)c4ccccc4)[C@H]21)C3(C)C [Docetaxel] + C[C@]1(O)C[C@@H](c2nc(-c3ccc4ccc(-c5ccccc5)nc4c3)c3c(N)nccn32)C1 [Linsitinib] (partner 1 µM)",
    "relative viability": 0.352
  },
  {
    "compound": "CC(=O)O[C@@]12CO[C@@H]1C[C@H](O)[C@@]1(C)C(=O)[C@H](O)C3=C(C)[C@@H](OC(=O)[C@H](O)[C@@H](NC(=O)OC(C)(C)C)c4ccccc4)C[C@@](O)([C@@H](OC(=O)c4ccccc4)[C@H]21)C3(C)C [Docetaxel] + CC1(C)CCC(c2ccc(Cl)cc2)=C(CN2CCN(c3ccc(C(=O)NS(=O)(=O)c4ccc(N[C@H](CCN5CCOCC5)CSc5ccccc5)c(S(=O)(=O)C(F)(F)F)c4)cc3)CC2)C1 [Navitoclax] (partner 0.5 µM)",
    "relative viability": 0.228
  },
  {
    "compound": "CC(=O)O[C@@]12CO[C@@H]1C[C@H](O)[C@@]1(C)C(=O)[C@H](O)C3=C(C)[C@@H](OC(=O)[C@H](O)[C@@H](NC(=O)OC(C)(C)C)c4ccccc4)C[C@@](O)([C@@H](OC(=O)c4ccccc4)[C@H]21)C3(C)C [Docetaxel] + COc1cc2c(Oc3ccc(NC(=O)C4(C(=O)Nc5ccc(F)cc5)CC4)cc3F)ccnc2cc1OCCCN1CCOCC1 [Foretinib] (partner 0.25 µM)",
    "relative viability": 0.204
  },
  {
    "compound": "CC(=O)O[C@@]12CO[C@@H]1C[C@H](O)[C@@]1(C)C(=O)[C@H](O)C3=C(C)[C@@H](OC(=O)[C@H](O)[C@@H](NC(=O)OC(C)(C)C)c4ccccc4)C[C@@](O)([C@@H](OC(=O)c4ccccc4)[C@H]21)C3(C)C [Docetaxel] + O=C(CCCCCCC(=O)Nc1ccccc1)NO [Vorinostat] (partner 1 µM)",
    "relative viability": 0.26
  },
  {
    "compound": "CC(=O)O[C@@]12CO[C@@H]1C[C@H](O)[C@@]1(C)C(=O)[C@H](O)C3=C(C)[C@@H](OC(=O)[C@H](O)[C@@H](NC(=O)OC(C)(C)C)c4ccccc4)C[C@@](O)([C@@H](OC(=O)c4ccccc4)[C@H]21)C3(C)C [Docetaxel] + Nc1ncn([C@H]2C[C@H](O)[C@@H](CO)O2)c(=O)n1 [Decitabine] (partner 2 µM)",
    "relative viability": 0.2
  },
  {
    "compound": "CC(=O)O[C@@]12CO[C@@H]1C[C@H](O)[C@@]1(C)C(=O)[C@H](O)C3=C(C)[C@@H](OC(=O)[C@H](O)[C@@H](NC(=O)OC(C)(C)C)c4ccccc4)C[C@@](O)([C@@H](OC(=O)c4ccccc4)[C@H]21)C3(C)C [Docetaxel] + CCNC(=O)c1noc(-c2cc(C(C)C)c(O)cc2O)c1-c1ccc(CN2CCOCC2)cc1 [Luminespib] (partner 0.01 µM)",
    "relative viability": 0.177
  }
]

Continue with the next compound.
compound CC(=O)O[C@@]12CO[C@@H]1C[C@H](O)[C@@]1(C)C(=O)[C@H](O)C3=C(C)[C@@H](OC(=O)[C@H](O)[C@@H](NC(=O)OC(C)(C)C)c4ccccc4)C[C@@](O)([C@@H](OC(=O)c4ccccc4)[C@H]21)C3(C)C [Docetaxel] + Cc1nc(Nc2ncc(C(=O)Nc3c(C)cccc3Cl)s2)cc(N2CCN(CCO)CC2)n1 [Dasatinib] (partner 0.075 µM) , relative viability observed: 0.175
